Entry source: PubChem BioAssay (NCI)

# Test system: CAKI-1 renal
# test: NCI tumour cell line growth inhibition, 48 h
Kindly state TGI for each of the entries shown.

>>> value_observed("NCc1c(C(N)=O)ncn1Cc1ccccc1")
"> 100 µM"
>>> value_observed("O=C(CNc1ccc2c(=S)c3ccccc3[nH]c2c1)Nc1ccccc1-c1ccccc1NC(=O)CNc1ccc2c(=S)c3ccccc3[nH]c2c1")
"75.6 µM"
>>> value_observed("Cn1ccnc1CCc1ccc(Cl)c(Cl)c1")
"> 100 µM"
>>> value_observed("COC12CCC(C(C(=O)c3ccccc3)=C1C(=O)c1ccccc1)C(O)C2 (stereo not drawn)")
"> 100 µM"

Batch lookup, TGI per entry.
1. O=C1C(=O)N(c2nccs2)C(=O)C(=O)C1c1nc2ccccc2s1
2. Nc1c(C(=O)N/N=C/c2ccc(-c3cc(Cl)c(Cl)cc3Cl)o2)cnn1-c1ccnc2c(C(F)(F)F)cccc12
3. NCCCN1CCN(CCCNc2nc3ccccc3c3[nH]c4ccccc4c23)CC1
4. COC(=O)C1=CON2C3CC4CC(C3)CC(C4)C12C (stereo not drawn)

Data returned:
1. > 100 µM
2. > 100 µM
3. 3.45 µM
4. > 100 µM

Batch lookup, TGI per entry.
1. COc1ccc(CNc2nc3cc(C(F)(F)F)ccc3nc2-c2ccccc2)cc1OC
2. Cc1ccc2nc(-c3ccc(N)c4ccccc34)[nH]c2c1
3. C=C(CNC(=O)c1ccccc1)c1ccc(C(=O)Nc2ccccc2N)cc1
4. Cn1c(=O)c(C(=O)NC(=O)NCCCCCOC(=O)CCCCCCCCCCC(=O)OCCCCCNC(=O)NC(=O)c2cn(Cc3ccccc3)c(=O)n(C)c2=O)cn(Cc2ccccc2)c1=O

Data returned:
1. 75.4 µM
2. 5.62 µM
3. 45.4 µM
4. > 100 µM

Batch lookup, TGI per entry.
1. CCC1(NC(=O)c2cc(F)c(F)c(F)c2F)C(=O)NC(=O)N(C(C)C)C1=O (stereo not drawn)
2. O=C(N/N=C(/COc1ccccc1Cl)N=Cc1ccncc1)c1ccncc1
3. CC(=O)OCCCCn1cc(Cn2ccc(=O)n(Cc3cn(CCCCOC(C)=O)nn3)c2=O)nn1

Data returned:
> 100 µM
> 100 µM
> 100 µM

Batch lookup, TGI per entry.
1. COc1ccc([C@]23CCN4COC[C@@H]([C@H]42)C2(CC3)OCC(C)(C)CO2)cc1OC
2. NS(=O)(=O)c1ccc(-n2ncc3c(Nc4ccccc4)ncnc32)cc1
3. COC(=O)[C@H](C)NC(=O)[C@@H](OC)[C@@H]1Cc2cc3cc(OC4CC(OC5CC(O)C(O)C(C)O5)C(O)C(C)O4)c(C)c(O)c3c(O)c2C(=O)[C@H]1OC1CC(OC2CC(OC3CC(C)(O)C(O)C(C)O3)C(O)C(C)O2)C(O)C(C)O1 (stereo partly drawn)

Data returned:
["> 100 µM", "> 100 µM", "2.02 µM"]
